assay: Encapsulation efficiency, RiboGreen RNA quantitation assay (CA HA modFlu mRNA LNPs); type: physicochemical; details: LNP with CA HA modFlu mRNA
Reported EE % values for the following compounds.
Observation type: EE % (%)

[
  {
    "Compound": "CCCCCCCC(CCCCCCC)OC(=O)CCC(=O)O[C@@H]1CC2(CCN(CCCCO)CC2)C[C@H]1OC(=O)CCC(=O)OC(CCCCCCC)CCCCCCC (racemic)",
    "Result units": "%",
    "Numeric value": 99
  },
  {
    "Compound": "CCCCCCCC(CCCCCCC)C(=O)OCCCCCC(=O)O[C@@H]1CC2(CCN(CCCCO)CC2)C[C@H]1OC(=O)CCCCCOC(=O)C(CCCCCCC)CCCCCCC (racemic)",
    "Result units": "%",
    "Numeric value": 99
  },
  {
    "Compound": "CCCCCCCCC(CCCCCC)C(=O)OCC(COC(=O)C(CCCCCCCC)CC1CCC1)N1CCC2(CCN(CCCCO)CC2)CC1 (stereo not shown)",
    "Result units": "%",
    "Numeric value": 99
  },
  {
    "Compound": "CCCCCCCCCCCCC(CCCCCCC)C(=O)OCC(COC(=O)C(CCCCCCC)CCCCCCCCCCCC)N1CCC2(CCN(CCCCO)CC2)CC1 (stereo not shown)",
    "Result units": "%",
    "Numeric value": 99
  },
  {
    "Compound": "CCCCCCCC(CCCCCCC)C(=O)OCC(COC(=O)C(CCCCCCC)CCCCCCC)N1CCC2(CCN(CCCCO)C2)C1 (stereo not shown)",
    "Result units": "%",
    "Numeric value": 100
  },
  {
    "Compound": "CCCCCCCC(CCCCCCC)C(=O)OCC(COC(=O)C(CCCCCCC)CCCCCCC)N1CC2(CCN(CCCCCO)CC2)C1",
    "Result units": "%",
    "Numeric value": 99
  },
  {
    "Compound": "CCCCCCCCCC(CCCCCC)C(=O)O[C@@H]1CC2(CCN(CCCCO)CC2)C[C@H]1OC(=O)C(CCCCCC)CCCCCCCCC (mixture of isomers)",
    "Result units": "%",
    "Numeric value": 96
  },
  {
    "Compound": "CCCCCCCCC(CCCCCC)C(=O)OCC(COC(=O)C(CCCCCC)CCCCCCCC)N1CCC2(CCN(CCCCCO)C2)C1 (stereo not shown)",
    "Result units": "%",
    "Numeric value": 99
  },
  {
    "Compound": "CCCCCCCCC(CCCCCC)C(=O)O[C@@H]1CC2(CCN(CCCCO)CC2)C[C@H]1OC(=O)C(CC)CCCCCCC (mixture of isomers)",
    "Result units": "%",
    "Numeric value": 98
  },
  {
    "Compound": "CCCCCCCCC(CCCCCCCC)C(=O)OCC(COC(=O)C(CCCCCCCC)CCCCCCCC)N1CCC2(CCN(CCCCO)CC2)CC1",
    "Result units": "%",
    "Numeric value": 99
  },
  {
    "Compound": "CCCCCCCC(CCCCCCC)C(=O)O[C@@H]1CC2(CCN(CCCCO)CC2)C[C@H]1OC(=O)C(CCCCCCC)CCCCCCC (racemic) [Example 51]",
    "Result units": "%",
    "Numeric value": 99
  },
  {
    "Compound": "CCCCCCCCC(CCCCCC)C(=O)O[C@@H]1CC2(CCN(CCCCO)CC2)C[C@H]1OC(=O)C(CCCCCC)CCCCCCCC (mixture of isomers)",
    "Result units": "%",
    "Numeric value": 99
  },
  {
    "Compound": "CCCCCCCC(CCCCCCC)C(=O)O[C@@H]1CC2(CCN(CCCNc3c(NC)c(=O)c3=O)CC2)C[C@H]1OC(=O)C(CCCCCCC)CCCCCCC (racemic)",
    "Result units": "%",
    "Numeric value": 100
  }
]
